Quick reference: Kb of the listed items.
Biological target: human prostanoid EP1 receptor (Homo sapiens, UniProt P34995)
Construct: expressed in transfected cells
Sequence (P34995 whole entry): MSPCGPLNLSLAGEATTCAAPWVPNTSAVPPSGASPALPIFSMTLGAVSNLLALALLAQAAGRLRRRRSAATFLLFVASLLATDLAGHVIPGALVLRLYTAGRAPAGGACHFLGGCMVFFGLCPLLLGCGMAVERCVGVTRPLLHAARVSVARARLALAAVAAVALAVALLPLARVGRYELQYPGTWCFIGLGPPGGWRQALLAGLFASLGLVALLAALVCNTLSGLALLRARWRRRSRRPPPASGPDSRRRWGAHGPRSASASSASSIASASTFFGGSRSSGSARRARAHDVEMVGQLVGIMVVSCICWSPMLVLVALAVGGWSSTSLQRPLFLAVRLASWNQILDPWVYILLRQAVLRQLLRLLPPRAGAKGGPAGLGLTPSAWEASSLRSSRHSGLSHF
Experiment: FLIPR Ca2+ signaling PG antagonist assay, EP1 stable cell line
Format: cell-based
Conditions: HEK-293 EBNA cells, human recombinant EP1, no exogenous G-protein; standard agonist PGE2
API: value field is a number in µM; no unit string.

>>> val("Cc1ccc(OCC(C)C)c(Cn2ncc3cc(C(=O)O)ccc32)n1 [Example 50]")
0.09
>>> val("O=C(O)c1ccc2c(cnn2Cc2cc(Cl)ccc2OCC2CC2)c1 [Example 11]")
0.12
>>> val("CCC(CC)COc1ccc(Br)cc1Cn1cnc2cc(C(=O)O)ccc21 [Example 78]")
0.145

Kb value, target or system human prostanoid EP1 receptor (Homo sapiens, UniProt P34995), for CC(C)COc1ccc(OCC(F)F)cc1Cn1ncc2cc(C(=O)O)ccc21 [Example 55] : 0.04

Kb value, target or system human prostanoid EP1 receptor (Homo sapiens, UniProt P34995), for CCC(CC)COc1ccc(Cl)cc1Cn1cc2c(C(=O)O)cccc2n1 [Example 39] : 1.2

Kb value, target or system human prostanoid EP1 receptor (Homo sapiens, UniProt P34995), for CCC(CC)COc1ccc(Br)cc1Cn1ccc2cc(C(=O)O)ccc21 [Example 69] : 0.25
